Hi! I'm sharing some IC50 results obtained with GST tagged IRAK4 (Homo sapiens (Human), UniProt Q9NWZ3).
Sequence (Q9NWZ3 whole entry): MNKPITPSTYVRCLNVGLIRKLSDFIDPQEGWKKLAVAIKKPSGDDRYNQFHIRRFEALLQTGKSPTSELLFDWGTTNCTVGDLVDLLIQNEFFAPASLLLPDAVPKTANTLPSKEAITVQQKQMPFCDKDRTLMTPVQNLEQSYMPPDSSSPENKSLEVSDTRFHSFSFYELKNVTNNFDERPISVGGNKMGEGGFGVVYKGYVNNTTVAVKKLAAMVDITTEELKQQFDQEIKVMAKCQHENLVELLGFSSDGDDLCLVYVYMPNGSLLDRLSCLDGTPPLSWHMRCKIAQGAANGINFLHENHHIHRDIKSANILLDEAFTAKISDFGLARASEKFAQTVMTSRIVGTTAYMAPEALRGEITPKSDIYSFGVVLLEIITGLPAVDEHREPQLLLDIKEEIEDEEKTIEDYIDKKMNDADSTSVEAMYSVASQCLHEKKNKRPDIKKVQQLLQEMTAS
Structures can show the parent of a compound that is named as a salt.
The answer is to be given in nM; state only the numeric part.

Solved cases (3 shown):
molecule	target-desc	unit-annotation	IC50
Cn1cc(NC(=O)c2csc3ncc(N4C[C@H]5CC[C@@H]4CN5)nc23)c(C(F)F)n1 (single isomer, unassigned) [Example 23, trifluoroacetate]	GST tagged IRAK4 (Homo sapiens (Human), UniProt Q9NWZ3)	nM	1
N[C@@H]1[C@H](Nc2cnc3scc(C(=O)Nc4ccccc4Cl)c3n2)CCCC1(F)F [Example 101, trifluoroacetate]	GST tagged IRAK4 (Homo sapiens (Human), UniProt Q9NWZ3)	nM	545
Cn1cc(NC(=O)c2csc3ncc(N4C[C@@H]5CC[C@H]4CN5)nc23)c(Cl)n1 (single isomer, unassigned) [Example 16, trifluoroacetate]	GST tagged IRAK4 (Homo sapiens (Human), UniProt Q9NWZ3)	nM	73

Lab note: next molecule to report on.
### Prompt Quick check: IC50 on GST tagged IRAK4 (Homo sapiens (Human), UniProt Q9NWZ3), item Cn1cc(NC(=O)c2csc3ncc(N4C5CCC4CNC5)nc23)c(C(F)F)n1 [Example 44, trifluoroacetate] ?
### Response 0.5

---

GST tagged IRAK4 (Homo sapiens (Human)) IC50 data
Where a name gives a salt, the structure may show the parent alone.
Write it as a number; the unit nM goes unstated.

Examples with answers:
molecule	reported-endpoint	numeric-readout
O=C(Nc1ccccc1C(F)F)c1csc2ncc(N3CCCNCC3)nc12 [Example 103, trifluoroacetate]	IC50	3630
Cn1cc(NC(=O)c2csc3ncc(N[C@@H]4CCCC[C@@H]4N)nc23)c(Br)n1 [Example 30, trifluoroacetate]	IC50	0.6
Cn1cc(NC(=O)c2csc3ncc(N4C[C@H]5CC[C@@H]4CN5)nc23)c(C#N)n1 (single isomer, unassigned) [Example 27, trifluoroacetate]	IC50	37
N#Cc1cscc1NC(=O)c1csc2ncc(N3CCCNCC3)nc12 [Example 55, trifluoroacetate]	IC50	189
Cn1cc(NC(=O)c2csc3ncc(N4CCNCC5(CC5)C4)nc23)c(C(F)F)n1 [Example 13, trifluoroacetate]	IC50	6

### Prompt Hi! What's the reported IC50 for N#Cc1cscc1NC(=O)c1csc2ncc(N[C@@H]3CCCC[C@@H]3N)nc12 [Example 57, trifluoroacetate] on GST tagged IRAK4 (Homo sapiens (Human))?
### Response 0.5

### Prompt # query: IC50 | item Cn1cc(NC(=O)c2csc3ncc(N[C@H]4CCCCNC4)nc23)c(C(F)F)n1 (single isomer, unassigned) [Example 34, trifluoroacetate] | system: GST tagged IRAK4 (Homo sapiens (Human))
### Response 2

### Prompt Item: N[C@@H]1[C@H](Nc2cnc3scc(C(=O)Nc4cscc4Cl)c3n2)CCCC1(F)F [Example 111, trifluoroacetate] Test system: GST tagged IRAK4 (Homo sapiens (Human)) Read-out: IC50 Value: ?
### Response 645

### Prompt API: value(readout= IC50, system= GST tagged IRAK4 (Homo sapiens (Human)), query= O=C(Nc1ccccc1Cl)c1csc2ncc(N3C[C@@H]4CC[C@H]3CN4)nc12 (single isomer, unassigned) [Example 99, trifluoroacetate] )
### Response 1560

### Prompt Form entry - test system: GST tagged IRAK4 (Homo sapiens (Human)); read-out: IC50; molecule: N[C@H]1CCCC[C@H]1Nc1cnc2scc(C(=O)Nc3ccsc3Br)c2n1 [Example 54, trifluoroacetate]
### Response 1

### Prompt Please state recorded IC50 (tested on GST tagged IRAK4 (Homo sapiens (Human))) of O=C(Nc1ccsc1Cl)c1csc2ncc(N3CCCNCC3)nc12 [Example 52, trifluoroacetate]
### Response 585

### Prompt GET /values?readout=IC50&system=GST tagged IRAK4 (Homo sapiens (Human))&item= Cn1cc(NC(=O)c2csc3ncc(N4C[C@@H]5CC[C@H]4CN5)nc23)c(C(F)F)n1 (single isomer, unassigned) [Example 22, trifluoroacetate]
### Response 7

### Prompt Write down the reported IC50 of N[C@H]1CCCC[C@H]1Nc1cnc2scc(C(=O)Nc3ccsc3C(F)(F)F)c2n1 , test system: GST tagged IRAK4 (Homo sapiens (Human)).
### Response 12

### Prompt Give IC50 (GST tagged IRAK4 (Homo sapiens (Human))) of the following molecule: Cn1cc(NC(=O)c2csc3ncc(N4CCNCC4)nc23)c(C(F)F)n1 [Example 12, trifluoroacetate]
### Response 3

### Prompt Given the entry N#Cc1ccccc1NC(=O)c1csc2ncc(N3C[C@@H]4CC[C@H]3CN4)nc12 (single isomer, unassigned) [Example 97, trifluoroacetate] , what IC50 was observed with GST tagged IRAK4 (Homo sapiens (Human))?
### Response 173

### Prompt Form entry - test system: GST tagged IRAK4 (Homo sapiens (Human)); read-out: IC50; molecule: O=C(Nc1ccccc1Br)c1csc2ncc(N3C[C@H]4CC[C@@H]3CN4)nc12 (single isomer, unassigned) [Example 89, trifluoroacetate]
### Response 612

### Prompt Record lookup: for GST tagged IRAK4 (Homo sapiens (Human)), what IC50 belongs to Cn1cc(NC(=O)c2csc3ncc(N[C@@H]4CCCC[C@@H]4N)nc23)c(Cl)n1 [Example 35, trifluoroacetate] ?
### Response 0.3

### Prompt For GST tagged IRAK4 (Homo sapiens (Human)), provide IC50 of O=C(Nc1ccccc1Br)c1csc2ncc(N3C[C@@H]4CC[C@H]3CN4)nc12 (single isomer, unassigned) [Example 88, trifluoroacetate] please.
### Response 2870

### Prompt Fill in the recorded IC50 for this molecule, with GST tagged IRAK4 (Homo sapiens (Human)) as test system: Cn1cc(NC(=O)c2csc3ncc(N[C@@H]4CCCCNC4)nc23)c(C(F)(F)F)n1 (single isomer, unassigned) [Example 38, trifluoroacetate]
### Response 0.6

### Prompt Which IC50 is reported with GST tagged IRAK4 (Homo sapiens (Human)) for this entry: N#Cc1ccccc1NC(=O)c1csc2ncc(N3CCNCC3)nc12 [Example 86, trifluoroacetate] ?
### Response 292
